Target: Cbl-b (Homo sapiens (Human))
Experiment: Cbl-b LCK Ub TR-FRET assay (Cbl-b Lck HTRF)
Format: biochemical
Settings: Cbl-b LCK Ub TR-FRET
pIC50: −log10 of the molar value.
The molecules listed here are annotated with their pIC50.
MEASURED_ENDPOINT: pIC50

1) CCNc1cc(N2Cc3c(cc(CNC4(C)CCC4)cc3C(F)(F)F)C2=O)cc([C@]2(c3nncn3C)C[C@H](C)C2)c1
8.11
2) COC[C@@H]1CC1(c1cccc(N2Cc3c(cc(CNC4(C)CCC4)cc3C(F)(F)F)C2=O)c1)c1nncn1C (single isomer, unassigned)
5.72
3) Cn1cnnc1[C@@H](c1cccc(N2Cc3c(cc(CNC4(C)CCC4)cc3C(F)(F)F)C2=O)c1)[C@H]1C[C@@H](C#N)C1 (single isomer, unassigned)
6.08
4) Cn1cnnc1[C@@H](c1cccc(N2Cc3c(cc(CNC4(C)CCC4)cc3C(F)(F)F)C2=O)c1)[C@H]1C[C@@H](C)C1 (single isomer, unassigned)
8.17
5) CO[C@H]1C[C@H]([C@@H](c2cccc(N3Cc4c(cc(CN5CCN(C)C[C@@H]5C(C)C)cc4C(F)(F)F)C3=O)c2)c2nncn2C)C1 (single isomer, unassigned) [Compound 15]
5.72

* * *

Target: Cbl-b (Homo sapiens (Human), UniProt Q13191)
Test: Cbl-b LCK Ub TR-FRET assay (Cbl-b Lck HTRF)
Type: biochemical
Details: ratio C-cbl Lck HTRF IC50 / Cbl-b Lck HTRF IC50
The compounds listed here are annotated with their fold-selectivity (Cbl-b over C-cbl).
MEASURED_ENDPOINT: fold-selectivity (Cbl-b over C-cbl) (x)

1. Cn1cnnc1C(c1cccc(N2Cc3c(cc(CNC4(C)CCC4)cc3C(F)(F)F)C2=O)c1)C1CC(F)(F)C1 (racemic) [Compound 145]
2.4
2. Cn1cnnc1C1(c2cccc(N3Cc4c(cc(CNC5(C)CCC5)cc4C(F)(F)F)C3=O)c2)CS(=O)(=O)C1 [Compound 328]
3.8
3. Cn1cnnc1C1(c2cccc(N3Cc4c(cc([C@@H](O)CO)cc4C(F)(F)F)C3=O)c2)CCC1 (single isomer, unassigned) [Compound 301]
2.0
4. Cn1cnnc1[C@H](c1cccc(N2Cc3c(cc(CNC4(C)CCC4)cc3C(F)(F)F)C2=O)c1)[C@H]1C[C@H](C)C1 (single isomer, unassigned) [Compound 376]
9.0
5. CO[C@H]1C[C@@](c2cccc(N3Cc4c(cc(CNC5(C)CCC5)cc4C(F)F)C3=O)c2)(c2nncn2C)C1 [Compound 116]
6.0
6. Cn1cnnc1[C@H](c1cccc(N2Cc3c(cc(CNC4(C)CCC4)cc3C(F)(F)F)C2=O)c1)C1CC(OCC(F)F)C1 (single isomer, unassigned) [Compound 262]
7.1
7. Cn1cnnc1[C@@H](CC1(C)COC1)c1cccc(N2Cc3c(cc(CNC4(C)CCC4)cc3C(F)(F)F)C2=O)c1 [Compound 255]
1.3
8. Cn1cnnc1[C@@]1(c2cccc(N3Cc4c(cc(CNC5(C)CCC5)cc4C(F)(F)F)C3=O)c2)CCC(F)(F)C1 (single isomer, unassigned) [Compound 106]
3.5

* * *

Biological target: Human Cbl-b (residues 40-426) (Homo sapiens (Human))
Sequence (Q13191 40-426): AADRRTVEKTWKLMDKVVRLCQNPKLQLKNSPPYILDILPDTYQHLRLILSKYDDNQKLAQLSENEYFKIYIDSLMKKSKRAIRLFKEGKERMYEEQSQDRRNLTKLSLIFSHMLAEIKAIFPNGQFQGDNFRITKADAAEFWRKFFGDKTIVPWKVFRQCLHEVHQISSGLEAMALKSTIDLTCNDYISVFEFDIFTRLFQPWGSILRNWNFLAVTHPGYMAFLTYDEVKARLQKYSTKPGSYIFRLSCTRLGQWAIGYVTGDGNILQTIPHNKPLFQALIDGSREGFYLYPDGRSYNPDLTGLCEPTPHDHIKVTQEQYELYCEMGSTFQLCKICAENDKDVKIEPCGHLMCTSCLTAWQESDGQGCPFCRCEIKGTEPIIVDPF
Assay: Cbl-b SPR assay
Type: binding
Settings: C-cbl SPR Kd vs Cbl-b SPR Kd
MEASURED_ENDPOINT: Fold of selectivity (×)

1) CNc1cc(N2Cc3c(cc(CNC4(C)CCC4)cc3C(F)(F)F)C2=O)cc([C@]2(c3nncn3C)C[C@H](OC)C2)c1 [Compound 239]
4.4
2) CO[C@H]1C[C@](c2cc(OC3COC3)cc(N3Cc4c(cc(CNC5(C)CCC5)cc4C(F)(F)F)C3=O)c2)(c2nncn2C)C1 [Compound 242]
5.5
3) Cn1cnnc1[C@]1(c2cccc(N3Cc4c(cc(CNC5(C)CCC5)cc4C(F)(F)F)C3=O)c2)C[C@H](C)C1 [Compound 34]
0.6
4) Cn1cnnc1[C@]1(c2cccc(N3Cc4c(cc(CNC5(C)CCC5)cc4C(F)(F)F)C3=O)c2)C[C@@H](OC(F)F)C1 [Compound 334]
26
5) C=CCOc1cc(N2Cc3c(cc(CNC4(C)CCC4)cc3C(F)(F)F)C2=O)cc([C@]2(c3nncn3C)C[C@@H](OC)C2)c1 [Compound 205]
2.8
6) Cn1cnnc1[C@H](c1cccc(N2Cc3c(cc(CNC4(C)CCC4)cc3C(F)(F)F)C2=O)c1)C1CC(=O)C1 (single isomer, unassigned) [Compound 115]
5.2
